study_system: UniProtKB Q08499
Sequence (Q08499 whole entry): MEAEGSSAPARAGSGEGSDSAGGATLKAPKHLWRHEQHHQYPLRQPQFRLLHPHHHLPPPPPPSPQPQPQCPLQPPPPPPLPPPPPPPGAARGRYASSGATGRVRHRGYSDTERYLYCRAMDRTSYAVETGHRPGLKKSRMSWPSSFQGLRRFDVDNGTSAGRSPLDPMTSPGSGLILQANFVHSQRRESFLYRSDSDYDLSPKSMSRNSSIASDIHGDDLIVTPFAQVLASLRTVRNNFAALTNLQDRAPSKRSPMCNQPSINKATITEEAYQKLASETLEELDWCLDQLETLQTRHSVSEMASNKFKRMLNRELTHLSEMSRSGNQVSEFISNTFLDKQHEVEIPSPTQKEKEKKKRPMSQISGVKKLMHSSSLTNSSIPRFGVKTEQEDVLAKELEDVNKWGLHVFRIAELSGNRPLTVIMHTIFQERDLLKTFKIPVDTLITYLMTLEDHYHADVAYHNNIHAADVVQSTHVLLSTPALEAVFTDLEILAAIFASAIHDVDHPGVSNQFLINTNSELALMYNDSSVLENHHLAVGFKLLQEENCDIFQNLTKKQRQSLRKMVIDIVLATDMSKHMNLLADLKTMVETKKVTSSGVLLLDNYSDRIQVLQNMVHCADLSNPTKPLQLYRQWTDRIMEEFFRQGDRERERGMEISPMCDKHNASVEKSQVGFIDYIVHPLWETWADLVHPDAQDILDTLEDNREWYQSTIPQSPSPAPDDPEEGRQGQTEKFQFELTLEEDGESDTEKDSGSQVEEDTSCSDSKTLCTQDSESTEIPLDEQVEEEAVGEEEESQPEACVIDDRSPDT
experiment: Inhibition of PDE4D (unknown origin)
readout_type: pIC50
Numbers only, as −log10 of the molar value.

Q) Give UniProtKB Q08499 pIC50 for C=CCc1c(-c2cccc(NS(=O)(=O)c3cccs3)c2)oc(=O)c2cc(F)ccc12
A) 5.87

###

Reported pIC50 values, 3',5'-cyclic-AMP phosphodiesterase 4B (Homo sapiens).
Numbers only, as −log10 of the molar value.

C=CCc1c(-c2cccc(NS(=O)(=O)c3ccccc3)c2)oc(=O)c2ccccc12 | 5.91
C=CCc1c(-c2cccc(NS(=O)(=O)c3cccs3)c2)oc(=O)c2ccc(Cl)cc12 | 5.40

Hi team, please reply with pIC50 for each item in this list.
1. C=CCc1c(-c2ccc(NS(=O)(=O)c3ccccc3)cc2)oc(=O)c2ccccc12
2. C=CCc1c(-c2ccc(NS(=O)(=O)c3ccccc3)cc2)oc(=O)c2cc(F)ccc12
3. C=CCc1c(-c2cccc(NS(=O)(=O)c3ccc(C)cc3)c2)oc(=O)c2cc(F)ccc12
4. C=CCc1c(-c2ccc(NS(=O)(=O)c3ccc(C)cc3)cc2)oc(=O)c2cc(F)ccc12
5. C=CCc1c(-c2cccc(NS(=O)(=O)c3cccs3)c2)oc(=O)c2cc(F)ccc12

A)
5.41
5.72
5.52
5.63
6.27
